B1: ZC3H15 (parent)
chain: RKADFKAGKALVISGREVFEFRPE

# Variants of: B1
# EXPERIMENTAL_DETAILS: protein stability index of a GFP-peptide fusion (GPS, HEK-293T) (PSI 1-6); higher = more stable;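 further: lentivirally expressed fusions sorted by FACS into six bins by GFP to DsRed ratio, PSI derived from sequencing read proportions per bin multiplied by bin number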
# CONDITION_LABEL: c terminus: a fixed tail appended
Entries and their protein stability index
Respond using a number only.

• A7S = 3.26

Ask | Give the reported protein stability index for this variant. I13M
Reply | 3.26

Ask | Give the reported protein stability index for this variant. G8A
Reply | 2.94

Reference source for all entries: the supplement of paper PMC10567573
